Recorded values, source PubChem BioAssay.

Give viability for every item shown.
protocol.text: growth suppression of PTEN-deleted HCT116, pilot screen, cell-based, HCT116 clonal line, CellTiter-Glo (AID 824);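 also: 0% = 20 µM Hyamine control and 100% = vehicle cell control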
assay.conditions: 60 h, at 10 µM, hits give low values
Records with an inconclusive call do not appear.
Answer in %, number only, no unit symbol.

**Q:** Output viability of COc1cc(NC(=O)c2cc3c(=O)n(C)c4ccccc4c3n2C)cc(OC)c1OC
**A:** 95.7

**Q:** Fill in viability for record CCOC(=O)C1=C(Nc2cccc(Cl)c2)OCC1=O
**A:** 99

**Q:** For the compound O=C(NCCNC(=O)c1ccc(Br)o1)c1ccc(Br)o1 , report viability.
**A:** 105

**Q:** Supply reported viability belonging to this compound: Clc1ccccc1OCCN1CCCCC1
**A:** 96.2

**Q:** Annotate the compound CCOC(=O)CC(=O)Nc1ccc(Br)cc1C(=O)O with its measured viability.
**A:** 97.2

**Q:** Give the measured viability for CCOC(=O)N1CCN(C(=O)c2oc(=O)c3ccccc3c2-c2ccc(C)cc2)CC1
**A:** 102

**Q:** State its viability for this compound: CCOC(=O)C(C)n1cnc2sc3c(c2c1=O)CCC3 (centres undefined)
**A:** 99.6

**Q:** For the compound COc1ccc(N2CCN(C(=O)C(Cc3ccccc3)n3cccc3)CC2)cc1 (centres undefined) , report viability.
**A:** 82.6

**Q:** Retrieve viability measured for COc1ccc(NC2=CC(=O)CC(C)(C)C2)cc1OC and print it.
**A:** 89.2

**Q:** Note down viability recorded for CC(=O)c1cc(F)c(N2CCN(CCC#N)CC2)cc1C
**A:** 81.3

**Q:** In one line, give reported viability of the entry COC(=O)C1=C(C)N(c2cc(Cl)cc(Cl)c2)C(=O)C1 .
**A:** 45.7

**Q:** Return value of viability for input COC(=O)C(C)Sc1ccc2nnc(-c3cccc(F)c3)n2n1 (centres undefined) , no commentary.
**A:** 87.4

**Q:** For the compound O=C(CCSc1ccccc1)NCCSc1ccccn1 , give its reported viability.
**A:** 94.6

**Q:** Give reported viability value for CC1CCc2c(sc3nc(SCc4nc(-c5ccccc5)no4)n(C)c(=O)c23)C1 (centres undefined)
**A:** 89

**Q:** Tell us which viability value is on record for CCOC(=O)CN1c2ccccc2NC(=O)CC1C (centres undefined)
**A:** 98.9

**Q:** Dear colleague, please send me the reported viability for Cc1ccc(C(c2sc3ncnn3c2O)N2CCC(C)CC2)cc1 (centres undefined) when you can.
**A:** 90.2

**Q:** Hello, please tell me recorded viability for this one: O=C(Cn1cnc2c(nnn2-c2ccccc2)c1=O)N1CCC(Cc2ccccc2)CC1
**A:** 85.3

**Q:** Please indicate viability recorded for COCCN1Cc2cccc(C(=O)NCc3cccnc3)c2C1=O
**A:** 101

**Q:** Indicate its recorded viability; the compound in question is N#CC1=C(N)SC(N)=C(C#N)C1C1CC=CCC1 (centres undefined)
**A:** 97.5

**Q:** Specify measured viability for Cc1cc(C)nc(NS(=O)(=O)c2ccc(NC(=O)c3ccco3)cc2)n1 .
**A:** 95.9

**Q:** Give viability for the following compound: CCNC(=O)COc1ccc2ccccc2c1
**A:** 99.6

**Q:** Given the compound COc1ccc(CN2CCNC(=O)C2CC(=O)O)c(OC)c1 (centres undefined) , write its reported viability.
**A:** 93.1

**Q:** Return reported viability. Input compound: COc1ccc(C2CC(c3ccc(Cl)c(Cl)c3)Nc3nc(N)nn32)cc1 (centres undefined)
**A:** 76.4

**Q:** Could you please provide reported viability for COc1ccc2c(c1)OC13CCN(C)CC1C2C(C(=O)c1ccc(F)cc1)C(=O)N3 (centres undefined) ? Thanks!
**A:** 81.4
